test: log P(o/w), n-octanol/water two phase system; assay type: physicochemical
READOUT_NAME: logP

For orientation, consider the following solved cases.
MOLECULE	logP
CCCCS(=O)(=O)Nc1ccc(C2=C(C#N)C(=O)OC2=Cc2ccco2)cc1	< 5
CN(C)c1ccc(C=C(C#N)c2nc3cc(C(=O)O)ccc3o2)cc1	< 5
CCOCCOCCN(CCOCCOCC)c1ccc(C=C(C#N)c2nc3cc(S(=O)(=O)NC(=O)CC)ccc3s2)cc1	< 5
Cc1cc(N(CC(=O)OC(C)COC(C)COC(C)(C)C)CC(=O)OC(C)COC(C)COC(C)(C)C)ccc1C=C(C#N)c1nc2cc(C(=O)O)ccc2o1 (centres unmarked)	< 5
CCCCOC(=O)CN(CC(=O)OCCCC)c1ccc(C=C(C#N)C(=O)c2ccc(NS(C)(=O)=O)cc2)c(C)c1	< 5

Dear reader, for each entry below, please note its logP.
1. CCCCCCCCCCCCNc1cc(C)c(C=C(C#N)c2nc3ccc(NS(C)(=O)=O)cc3o2)cc1C
2. CCOCCOCCN(CCOCCOCC)c1ccc(C=C(C#N)c2nc3cc(S(=O)(=O)NC(=O)CC)ccc3o2)cc1

Marked response:
1. > 5
2. < 5

Exam item: Supply logP value. Item: CCCCCCCCCCCCCCCCS(=O)(=O)Nc1ccc2nc(C(C#N)=Cc3ccc(N(CC)CC)cc3C)sc2c1
Marked response: > 5
